Ref: patent US20250197372A1

Target: recombinant human GAA (acid alpha-glucosidase) (Homo sapiens, UniProt P10253)
Assay: Acid alpha-glucosidase (GAA) assay (4-methylumbelliferyl-alpha-D-pyranoside substrate, fluorescence)
Protocol: Acid alpha-glucosidase (GAA): To analyze inhibitory effects of a test compound, commercially available recombinant human GAA was incubated with multiple dilutions of test compound for 60 minutes at 37° C. […] 1,4-methyllumbelliferone is detected by fluorescence (excitation at 365 nm, emission at 440 nm). Relative fluorescence compared to untreated enzymatic activity and test compound concentration is plotted as a function of percent inhibition. […]
quantity: pIC50
Bear in mind: pIC50 is minus log10 of a mol/L concentration; give just that figure.

Give the reported value of pIC50 for this record: CS(=O)(=O)c1cc(NCc2cccc(CN3C[C@H](O)[C@@H](O)[C@H](O)[C@H]3CO)c2)cc(-c2cccnn2)c1
5.89

Give the reported value of pIC50 for this record: O=[N+]([O-])c1cc(-c2ncccn2)ccc1NCc1cccc(CN2C[C@H](O)[C@@H](O)[C@H](O)[C@H]2CO)c1
6.29

Give the reported value of pIC50 for this record: CN(C)Cc1ccc(NCCCCCCN2C[C@H](O)[C@@H](O)[C@H](O)[C@H]2CO)c(C(F)(F)F)c1
6.62

Give the reported value of pIC50 for this record: Cc1cc(NCc2ccc(CN3C[C@H](O)[C@@H](O)[C@H](O)[C@H]3CO)cc2)cc(N2CCOCC2)c1
6.44

Give the reported value of pIC50 for this record: O=[N+]([O-])c1cc(CN2CCCO2)ccc1NCCc1ccc(CCN2C[C@H](O)[C@@H](O)[C@H](O)[C@H]2CO)cc1
6.51

Give the reported value of pIC50 for this record: Cc1nc2cc(-c3ncccn3)ccc2n1CCCCCCN1C[C@H](O)[C@@H](O)[C@H](O)[C@H]1CO
6.62

Give the reported value of pIC50 for this record: OC[C@@H]1[C@@H](O)[C@H](O)[C@@H](O)CN1CCCCCCNc1cc(-c2ncccn2)cc(C(F)(F)F)c1
7.60

----------
Reported IC50 values are given for each entry in this list.
biological target: rat sucrase (partially purified alpha-glucosidase from intestinal rat powder) (Rattus norvegicus, UniProt P23739)
Sequence (P23739 whole entry): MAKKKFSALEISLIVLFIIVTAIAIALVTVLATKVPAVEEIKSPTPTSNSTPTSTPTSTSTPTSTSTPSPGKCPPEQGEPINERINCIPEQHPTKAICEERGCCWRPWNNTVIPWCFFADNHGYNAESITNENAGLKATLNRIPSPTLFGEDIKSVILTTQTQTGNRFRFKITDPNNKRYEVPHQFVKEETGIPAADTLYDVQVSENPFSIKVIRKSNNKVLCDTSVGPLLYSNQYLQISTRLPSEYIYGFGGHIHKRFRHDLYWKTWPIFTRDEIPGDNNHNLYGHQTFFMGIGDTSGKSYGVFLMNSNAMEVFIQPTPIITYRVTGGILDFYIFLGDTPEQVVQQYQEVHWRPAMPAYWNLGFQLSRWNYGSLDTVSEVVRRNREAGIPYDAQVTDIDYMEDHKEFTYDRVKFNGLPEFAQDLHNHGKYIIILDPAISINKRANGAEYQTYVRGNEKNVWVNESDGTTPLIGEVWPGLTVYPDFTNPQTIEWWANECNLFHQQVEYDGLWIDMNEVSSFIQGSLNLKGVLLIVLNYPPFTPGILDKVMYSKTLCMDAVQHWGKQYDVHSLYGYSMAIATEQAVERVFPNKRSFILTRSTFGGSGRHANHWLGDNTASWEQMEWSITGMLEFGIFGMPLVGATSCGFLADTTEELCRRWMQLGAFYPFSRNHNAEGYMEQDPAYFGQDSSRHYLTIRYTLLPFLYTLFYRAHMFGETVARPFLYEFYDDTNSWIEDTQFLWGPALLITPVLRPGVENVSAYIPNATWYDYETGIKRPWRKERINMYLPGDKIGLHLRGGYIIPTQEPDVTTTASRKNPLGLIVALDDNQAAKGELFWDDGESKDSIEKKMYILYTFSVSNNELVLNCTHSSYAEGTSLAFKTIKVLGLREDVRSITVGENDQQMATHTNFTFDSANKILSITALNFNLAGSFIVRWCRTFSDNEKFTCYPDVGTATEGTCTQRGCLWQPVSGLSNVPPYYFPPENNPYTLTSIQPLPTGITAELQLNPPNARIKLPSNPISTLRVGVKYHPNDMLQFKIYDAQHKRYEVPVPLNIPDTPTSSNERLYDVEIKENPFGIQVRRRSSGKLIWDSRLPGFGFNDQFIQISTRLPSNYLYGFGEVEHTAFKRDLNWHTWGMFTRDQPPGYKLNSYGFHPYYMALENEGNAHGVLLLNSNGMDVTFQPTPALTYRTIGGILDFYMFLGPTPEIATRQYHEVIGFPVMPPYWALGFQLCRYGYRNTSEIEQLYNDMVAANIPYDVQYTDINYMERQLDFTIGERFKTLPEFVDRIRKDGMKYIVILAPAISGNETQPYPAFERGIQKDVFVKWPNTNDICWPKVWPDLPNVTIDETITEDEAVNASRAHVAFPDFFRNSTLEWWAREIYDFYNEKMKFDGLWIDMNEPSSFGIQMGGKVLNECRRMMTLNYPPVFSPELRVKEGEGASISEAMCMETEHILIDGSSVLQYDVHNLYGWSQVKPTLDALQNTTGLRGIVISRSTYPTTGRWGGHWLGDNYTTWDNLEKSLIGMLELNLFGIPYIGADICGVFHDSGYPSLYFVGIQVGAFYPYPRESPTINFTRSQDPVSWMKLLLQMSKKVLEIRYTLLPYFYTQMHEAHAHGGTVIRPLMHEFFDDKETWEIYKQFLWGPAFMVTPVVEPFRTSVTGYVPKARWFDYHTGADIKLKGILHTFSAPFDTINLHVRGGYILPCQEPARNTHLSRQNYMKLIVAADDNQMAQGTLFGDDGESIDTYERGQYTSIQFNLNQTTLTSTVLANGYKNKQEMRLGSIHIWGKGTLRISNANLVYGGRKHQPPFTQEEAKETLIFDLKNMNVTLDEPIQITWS
Return type: number; implicit unit nM.

Past entries and their recorded results:
1) Cc1cc(NCc2cccc(CN3C[C@H](O)[C@@H](O)[C@H](O)[C@H]3CO)n2)cc(N2CCOCC2)c1
21300
2) [N-]=[N+]=Nc1ccc(NCCc2ccc(CCN3C[C@H](O)[C@@H](O)[C@H](O)[C@H]3CO)c3c2OCCO3)c([N+](=O)[O-])c1
456

// below: IC50 requested for another compound
Give the reported value of IC50 for this record: OC[C@@H]1[C@@H](O)[C@H](O)[C@@H](O)CN1Cc1cnc(CNc2cc(-c3ncccn3)cc(C3CC3)c2)cn1
675

----------
Target: recombinant alpha-glucosidase I (human full-length glucosidase I, Glu 1) (Homo sapiens)
Construct: 6-His (C); made in house; host or cells: HEK-293T cells transduced with BacMam virus (virus raised in Sf9)
Sequence (Q13724 1-837): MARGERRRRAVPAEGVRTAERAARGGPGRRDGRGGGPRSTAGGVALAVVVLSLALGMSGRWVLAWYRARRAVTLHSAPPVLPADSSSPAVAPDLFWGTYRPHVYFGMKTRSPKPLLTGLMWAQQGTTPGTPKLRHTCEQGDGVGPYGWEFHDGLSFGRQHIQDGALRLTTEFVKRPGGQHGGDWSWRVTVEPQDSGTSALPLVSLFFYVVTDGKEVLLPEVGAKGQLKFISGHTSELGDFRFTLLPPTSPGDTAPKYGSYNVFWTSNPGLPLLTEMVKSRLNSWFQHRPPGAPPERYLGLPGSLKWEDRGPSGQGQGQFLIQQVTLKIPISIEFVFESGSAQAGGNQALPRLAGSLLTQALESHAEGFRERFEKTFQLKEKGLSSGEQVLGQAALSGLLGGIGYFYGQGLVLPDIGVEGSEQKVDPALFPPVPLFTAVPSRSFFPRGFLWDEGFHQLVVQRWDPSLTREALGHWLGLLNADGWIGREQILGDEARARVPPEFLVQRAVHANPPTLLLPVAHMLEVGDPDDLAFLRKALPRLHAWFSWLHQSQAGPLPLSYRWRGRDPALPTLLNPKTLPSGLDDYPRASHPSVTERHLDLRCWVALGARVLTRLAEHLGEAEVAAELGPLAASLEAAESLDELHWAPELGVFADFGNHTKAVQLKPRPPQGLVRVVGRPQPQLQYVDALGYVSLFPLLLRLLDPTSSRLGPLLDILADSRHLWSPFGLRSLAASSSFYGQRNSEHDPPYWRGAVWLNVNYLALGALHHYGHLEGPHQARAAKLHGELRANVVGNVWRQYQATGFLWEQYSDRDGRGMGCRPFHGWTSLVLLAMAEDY
Assay: Alpha-glucosidase I assay (Amplex Red glucose detection, synthetic trisaccharide substrate)
Assay type: biochemical
Conditions: Glucosidase 1; read-out: Glu 1 IC50
quantity: pIC50
Bear in mind: pIC50 is minus log10 of a mol/L concentration; give just that figure.

1. Cc1cc(NCc2cccc(CN3C[C@H](O)[C@@H](O)[C@H](O)[C@H]3CO)c2)cc(C2=COCCO2)c1 [Compound 1032]
7.80
2. O=[N+]([O-])c1cc(-c2cccnn2)ccc1NCc1cccc(CN2C[C@H](O)[C@@H](O)[C@H](O)[C@H]2CO)c1 [Compound 1089]
7.59
3. Cc1cc(NCc2ccc(CN3C[C@H](O)[C@@H](O)[C@H](O)[C@H]3CO)cc2)cc(-c2ncccn2)c1 [Compound 1053]
6.98
4. [N-]=[N+]=Nc1ccc(NCCN2CCN(CCN3C[C@H](O)[C@@H](O)[C@H](O)[C@H]3CO)CC2)c([N+](=O)[O-])c1 [Compound 1273]
4.89

// below: pIC50 requested for another compound
Enter measured pIC50, system recombinant alpha-glucosidase I (human full-length glucosidase I, Glu 1) (Homo sapiens), for the compound shown: COc1cc(-c2ncccn2)ccc1NCCCCCCN1C[C@H](O)[C@@H](O)[C@H](O)[C@H]1CO [Compound 1231]
6.73

----------
biological target: rat maltase (partially purified alpha-glucosidase from intestinal rat powder); experiment: Intestinal alpha-glucosidase assay, maltose substrate (Glucose GO Kit)
quantity: IC50 (nM)
Return type: number; implicit unit nM.

Past entries and their recorded results:
1) COC(OC)c1cc(NCCCCCCN2C[C@H](O)[C@@H](O)[C@H](O)[C@H]2CO)cc(-c2ncccn2)c1
23
2) OC[C@@H]1[C@@H](O)[C@H](O)[C@@H](O)CN1Cc1cccc(CNc2ccc(-c3ncccn3)cc2)c1
95
3) O=[N+]([O-])c1cc(N2CC3CC2CO3)ccc1NCc1ccc(CN2C[C@@H](O)[C@H](O)[C@@H](O)[C@@H]2CO)cc1 (stereo in doubt)
8
4) [N-]=[N+]=Nc1ccc(NCCc2ccc(CCN3C[C@H](O)[C@@H](O)[C@H](O)[C@H]3CO)s2)c([N+](=O)[O-])c1
5

// below: IC50 requested for another compound
Give the reported value of IC50 for this record: [N-]=[N+]=Nc1ccc(NCCc2cc(CCN3C[C@H](O)[C@@H](O)[C@H](O)[C@H]3CO)ccc2C2CCCCC2)c([N+](=O)[O-])c1
5660

----------
Biological target: recombinant alpha-glucosidase I (human full-length glucosidase I, Glu 1) (Homo sapiens, UniProt Q13724)
Construct: 6-His (C); made in house; host or cells: HEK-293T cells transduced with BacMam virus (virus raised in Sf9)
Sequence (Q13724 1-837): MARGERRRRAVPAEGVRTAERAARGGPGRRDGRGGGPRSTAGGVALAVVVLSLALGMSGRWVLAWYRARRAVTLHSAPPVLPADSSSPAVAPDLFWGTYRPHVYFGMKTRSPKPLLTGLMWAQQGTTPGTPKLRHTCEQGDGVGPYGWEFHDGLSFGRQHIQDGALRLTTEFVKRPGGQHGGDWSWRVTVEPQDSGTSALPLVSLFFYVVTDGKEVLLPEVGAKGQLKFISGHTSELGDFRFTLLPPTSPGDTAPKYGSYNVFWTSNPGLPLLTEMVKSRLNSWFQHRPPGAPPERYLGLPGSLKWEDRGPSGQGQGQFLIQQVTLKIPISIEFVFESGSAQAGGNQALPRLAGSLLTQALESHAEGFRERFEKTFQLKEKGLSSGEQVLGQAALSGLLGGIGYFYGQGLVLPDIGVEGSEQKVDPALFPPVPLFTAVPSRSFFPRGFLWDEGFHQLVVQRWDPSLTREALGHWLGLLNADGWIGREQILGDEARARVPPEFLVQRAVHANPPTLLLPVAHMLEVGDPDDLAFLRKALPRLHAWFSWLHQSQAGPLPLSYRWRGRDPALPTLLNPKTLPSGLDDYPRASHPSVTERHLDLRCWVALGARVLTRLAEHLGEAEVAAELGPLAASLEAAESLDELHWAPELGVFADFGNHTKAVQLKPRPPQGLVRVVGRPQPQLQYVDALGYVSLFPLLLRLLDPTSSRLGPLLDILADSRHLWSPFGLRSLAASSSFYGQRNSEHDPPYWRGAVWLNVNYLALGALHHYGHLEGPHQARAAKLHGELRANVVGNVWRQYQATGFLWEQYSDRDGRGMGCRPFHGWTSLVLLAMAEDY
Experiment: Alpha-glucosidase I assay (Amplex Red glucose detection, synthetic trisaccharide substrate)
Type: biochemical
Settings: Glucosidase 1; read-out: Glu 1 IC50
quantity: pIC50
Bear in mind: pIC50 is minus log10 of a mol/L concentration; give just that figure.

Past entries and their recorded results:
1) COc1cc(C#N)cc(NCCc2ccc(CCN3C[C@H](O)[C@@H](O)[C@H](O)[C@H]3CO)cc2)c1
5.89
2) [N-]=[N+]=Nc1ccc(NCCOCCN2C[C@H](O)[C@@H](O)[C@H](O)[C@H]2CO)c([N+](=O)[O-])c1
5.70

// below: pIC50 requested for another compound
Give the reported value of pIC50 for this record: O=[N+]([O-])c1cc(-c2cccnn2)ccc1NCCc1ccc(CCN2C[C@H](O)[C@@H](O)[C@H](O)[C@H]2CO)cc1
8.22
